Source listed as patent US20190390161A1.

As shown below, each of these compounds has a reported Solubility Lys-Xxx found value.
# assay.procedure: Solubility found for Lys-Xxx dipeptides
# measurement.context: as hydrochloride or as acetate (footnotes 6, 7)
Bridge positions count the residues as written; N and C are the ends. Peptide text beside a SMILES is read from it. I, II: the chains in the order shown.
endpoint: Solubility Lys-Xxx found

compound="NCCCC[C@H](N)C(=O)N[C@@H](CSSC[C@H](NC(=O)[C@@H](N)CCCCN)C(=O)O)C(=O)O [Lys2-Cyss, Bis-L-lysyl-L-cystine × 4HCl] (I: H-Lys-Cys-OH / II: H-Lys-Cys-OH; disulfide I:2-II:2)" value_measured=">500 ^6) g/1000 g solution"
compound="CC(C)[C@H](NC(=O)[C@@H](N)CCCCN)C(=O)O [Lys-Val, L-Lysyl-L-valine] (H-Lys-Val-OH)" value_measured=">400 ^6) g/1000 g solution"
compound="CC(=O)O.CC(C)C[C@H](NC(=O)[C@@H](N)CCCCN)C(=O)O [Lys-Leu, L-Lysyl-L-leucine acetat] (H-Lys-Leu-OH)" value_measured=">330 ^7) g/1000 g solution"
compound="CC[C@H](C)[C@H](NC(=O)[C@@H](N)CCCCN)C(=O)O [Lys-Ile, L-Lysyl-L-isoleucine]" value_measured=">500 ^7) g/1000 g solution"
compound="NCCCC[C@H](N)C(=O)N[C@@H](Cc1ccc(O)cc1)C(=O)O [Lys-Tyr, L-Lysyl-L-tyrosine acetate]" value_measured=">330 ^7) g/1000 g solution"
